Attribution: patent US9683018B2

# ASSAY OVERVIEW: in vitro
# CONDITIONS: rat, plasma, Surrogate activity-based Plasma stability t½
Bridge positions count the residues as written; N and C are the ends. Square brackets hold non-standard residues; d marks the D form. Peptide text beside a SMILES is read from it. * marks the point of attachment. pGlu = O=C1CC[C@@H](C(=O)O)N1; NHPhenethyl = c1ccc(CCN*)cc1; Nle = CCCC[C@H](N)C(=O)O; Aib = CC(C)(N)C(=O)O
REPORTED PROPERTY: half-life (min)

{"MOLECULE": "CCCC[C@@H]1NC(=O)[C@@H]2CCCN2C(=O)[C@@H](NC(=O)[C@H](CCCCN)NC(=O)[C@H](Cc2c[nH]cn2)NC(=O)[C@H](CO)NC(=O)[C@H](CC(C)C)NC(=O)[C@H](CCCNC(=N)N)NC(=O)[C@@H]2CCCN2C(=O)[C@H](CCCNC(=N)N)NC(=O)[C@@H]2CCC(=O)N2)CSSC[C@@H](C(=O)N[C@@H](Cc2ccccc2)C(=O)O)NC1=O [Example 14, pE-R-P-R-L-S-H-K-C*-P-Nle-C*-F-OH] ([pGlu]RPRLSHKCP[Nle]CF-OH; disulfide 9-12)", "REPORTED PROPERTY": "half-life", "MEASUREMENT": 29}
{"MOLECULE": "CCCC[C@@H]1NC(=O)[C@@H]2CCCN2C(=O)[C@@H](NC(=O)[C@H](CCCCN)NC(=O)C(C)(C)NC(=O)[C@H](CO)NC(=O)[C@H](CC(C)C)NC(=O)[C@H](CCCNC(=N)N)NC(=O)[C@@H]2CCCN2C(=O)[C@H](CCCNC(=N)N)NC(=O)[C@@H]2CCC(=O)N2)CSSC[C@@H](C(=O)NCCc2ccccc2)NC1=O [Example 15] ([pGlu]RPRLS[Aib]KCP[Nle]C-NHPhenethyl; disulfide 9-12)", "REPORTED PROPERTY": "half-life", "MEASUREMENT": 41}
{"MOLECULE": "CCCC[C@@H]1NC(=O)[C@@H]2CCCN2C(=O)[C@@H](NC(=O)[C@H](CCCCN)NC(=O)[C@H](Cc2c[nH]cn2)NC(=O)[C@@H](CO)NC(=O)[C@H](CC(C)C)NC(=O)[C@H](CCCNC(=N)N)NC(=O)[C@@H]2CCCN2C(=O)[C@H](CCCNC(=N)N)NC(=O)[C@@H]2CCC(=O)N2)CSSC[C@@H](C(=O)N[C@H](Cc2ccccc2)C(=O)O)NC1=O [Example 21, pE-R-P-R-L-s-H-K-C*-P-Nle-C*-f-OH] ([pGlu]RPRL[dS]HKCP[Nle]C[dF]-OH; disulfide 9-12)", "REPORTED PROPERTY": "half-life", "MEASUREMENT": 533}
